assay: Phase I trial of oral PCLX-001: plasma pharmacokinetics, noncompartmental analysis (Phoenix WinNonlin 8.3)
Assay type: in vivo, human
conditionInfo: human, plasma, po, 20 mg, Table 1A; Patient 115-002-004 (Patient 3); Day 15; 20 mg oral daily; read-out: Tmax
measureName: Tmax (min)

- molecule: "Cc1c(NS(=O)(=O)c2c(Cl)cc(-c3ccnc(N4CCNCC4)c3)cc2Cl)c(CC(C)C)nn1C [PCLX-001]"
  measureName: "Tmax"
  readoutNumber: 30

====

assay: Phase I trial of oral PCLX-001: plasma pharmacokinetics, noncompartmental analysis (Phoenix WinNonlin 8.3)
Type: in vivo, human
conditionInfo: human, plasma, po, 70 mg, Table 8; Patient 115-024-001; Day 15; 70 mg QD oral; Pantoprazole No; read-out: AUClast or AUCtau

- smiles: "Cc1c(NS(=O)(=O)c2c(Cl)cc(-c3ccnc(N4CCNCC4)c3)cc2Cl)c(CC(C)C)nn1C"
  AUC(0-t): "7300 ng·h/mL"
